- System: NCI-H2172 cells
- experiment: 3D-TGA
- Type: cell-based
- assaySetup: Homo sapiens, read-out: IC50 in 3D-TGA Osimertinib; NCI-H2172, LUN, EGFR L858R; agent alone
pIC50: −log10 of the molar value.

- molecule: "C=CC(=O)Nc1cc(Nc2nccc(-c3cn(C)c4ccccc34)n2)c(OC)cc1N(C)CCN(C)C [Osimertinib, osimertinib]"
  pIC50: 6.00

###

- System: NCI-H358 cells
- experiment: 3D-TGA
- Format: cell-based, human
- assaySetup: NCI-H358, LUN, KRAS G12C; read-out: IC50 in 3D-TGA, agent alone

- smilesText: "O=C1[O][Pt]2([NH][C@@H]3CCCC[C@H]3[NH]2)[O]C1=O"
  IC50: "1 µM"

Values from patent US20260284005A1
